# System: P. falciparum 3D7 growth, pLDH absorbance
# Test Details: blood-stage malaria parasite growth potency – strain 3D7, dose response (AID 2305)
For each record, check the reported IC50: if it is below 700 nM write criterion met, else write criterion not met.

Regarding CCC(C)CN1CCN(c2ccc(NC(=O)c3cccs3)cc2)CC1C (stereo not given) , kindly confirm whether its IC50 is beneath 700 nM.
criterion met

What about `Cc1cc(NC(=O)c2ccco2)ccc1OC1CCN(Cc2ccc(F)cc2)CC1` ?
criterion met

Request: `COc1ccc(Cl)cc1N1CCN(CCCNC(=O)c2ccc(-c3nc4cc(Cl)c(C)cc4[nH]3)s2)CC1`
criterion not met

Proceed to `NC1=NC(c2ccccc2)(c2ccccc2)C(=O)N1Cc1ccc(-c2ccncc2)cc1`
criterion not met

Further, for `NC1CCN(c2nc(NCCc3ccc(O)cc3)nc(NCc3ccccc3-c3ccccc3)n2)CC1` ?
criterion not met

Now consider `Cc1ccccc1N1CCN(c2ccc(C(=O)NC(C)C)cn2)CC1` and answer again.
criterion not met

Would you kindly repeat that for `CNS(=O)(=O)Cc1ccc(Nc2nccc(Nc3cccc4c3cnn4C(=O)Nc3ccccc3)n2)cc1` ?
criterion not met

Another compound: `CC1(C)N=C(N)N=C(N)N1OCCCCON1C(N)=NC(N)=NC1(C)C`
criterion met

* * *

# Tested on: P. falciparum 3D7 growth, pLDH absorbance
# Test Details: blood-stage malaria parasite growth potency – strain 3D7, dose response (AID 2305)
Assay Readout: IC50 (nM)
Value expressed in nM; do not type the unit.

Record `O=c1cc(NCCCNCc2scc(I)c2I)[nH]c2ccccc12` : what is its IC50 with P. falciparum 3D7 growth, pLDH absorbance?
590

What would you report for `O=C(Nc1ccc2c(c1)CCC2)c1ccc(N2CCN(c3ccncc3)CC2)cc1` ?
1130

Again, but for Cc1cccn2c(=O)c3cc(C(=O)NC(C)c4ccccc4)c(=N)n(CCc4ccccc4)c3nc12 (stereo unspecified)
550

Can you handle `COc1cc(-c2ccc(-c3cnc(N)nc3OC)[nH]2)cc(OC)c1OC` next?
730

# repeat for `COc1cccc(Nc2nnc(SCC(=O)NNC(=O)c3ccccn3)s2)c1`
380

Record: CCC(C)NC(=O)Nc1ccc(-c2cccc(-c3nc4ccc(C(F)(F)F)cc4[nH]3)c2)cc1 (stereo unspecified)
620

Request: `COc1ccc(CCNC(=O)c2ccc(-n3cc(NC(=O)c4cccnc4)cn3)cc2)cc1OC`
1070

Cool, now `C[C@H](Cc1ccc(OCCCCCOc2ccc(C[C@@H](C)NC[C@H](O)c3cccc(Cl)c3)cc2)cc1)NC[C@H](O)c1cccc(Cl)c1`
190

Note, next up: `CC(C)(CNCc1ccc(C(F)(F)F)cc1)c1nc(-c2ccc(Cl)c(O)c2)c(-c2ccncc2)[nH]1`
730

Can you handle Cc1ccccc1C1CCN(C2CCC(NC(=O)c3cc4cc(Cl)ccc4o3)CC2)CC1 (stereo unspecified) next?
1200

Try this compound too: `CN1CCC(Oc2cc(NC(=O)Nc3ccc(-c4ccncc4)c(C(F)(F)F)c3)ccc2Cl)CC1`
780

Entry to check: `CCN(CC)CCN(Cc1ccc(-c2ccc(C(F)(F)F)cc2)cc1)C(=O)Cn1cc(CCCCc2cccc(F)c2F)c(=O)c2ccccc21`
880

Can you check CCn1c(-c2cc(C)on2)nc2cnc(Oc3ccc(C(=O)N4CC(=O)N(C)C4C(C)(C)C)cc3)cc21 (stereo unspecified) next?
1820

// query: `N#Cc1cnc(Nc2ccc(Oc3ccccc3)cc2)nc1Nc1cccc(S(N)(=O)=O)c1`
550

Now the compound `Cc1cc(C)c2oc(-c3cccc(NC(=O)c4ccc([N+](=O)[O-])o4)c3C)nc2c1`
1150

Further, for `O=C(Nc1cccc(C(F)(F)F)c1)c1cc([N+](=O)[O-])cc2cn[nH]c12` ?
990

* * *

For each record, write down the corresponding pIC50.
# Test system: P. falciparum 3D7 growth, pLDH absorbance
# Test Details: blood-stage malaria parasite growth potency – strain 3D7, dose response (AID 2305)
For clarity, pIC50 is expressed as the negative log10 of concentration in mol/L.

I'd like to know its pIC50. The molecule in question is `CC(=O)Nc1ccc(Nc2c3ccccc3nc3ccccc23)cc1`
5.99

What do you have for `c1cc(CN2CCCCC2)cc(OCCCNc2ccnc3ccccc23)c1` ?
6.37

Entry `N=C1c2ccccc2CN1CC(=O)c1ccc(Cl)c(Cl)c1` please
6.14

Query CCC(C)NCc1c(O)ccc2c(CNC(C)CC)c(O)ccc12 (stereo not given) next
6.23

Entry `COc1cc(NC(=O)c2sc(-c3ccc(Cl)cc3)cc2NC(=O)c2cccnc2)ccc1OCCN1CCCC1` please
6.42

Quick one: `CCCNCc1ccc(-c2ccc(CN(CCOC)C(=O)c3cnc(C)cn3)cc2)nc1`
5.90

Next: `CCOC(=O)N(C)/N=C/[C@H](CCc1ccccc1)NC(=O)[C@H](CC(C)C)NC(=O)c1cc2cccc(OC)c2o1`
6.25

For `O=C(NC1CCCCCC1)[C@@H]1CCCN1C(=O)c1ccc(O)c(-c2ccc(Cl)c(Cl)c2)c1` then?
6.47

Another: `CCNc1cc(C(=O)N[C@@H](Cc2ccccc2)[C@H](O)CNCCc2cc(OC)cc(OC)c2)cc(N2CCCCS2(=O)=O)c1`
5.94

// next record `CCOC(=O)[C@H](Cc1cccc2ccccc12)NC(=O)[C@H](CCC(=O)OC(C)(C)C)NC(=O)c1ccc(N(C)Cc2cnc3nc(N)nc(N)c3n2)cc1`
6.18

* * *

# Test system: P. falciparum 3D7 growth, pLDH absorbance
# Test Details: blood-stage malaria parasite growth potency – strain 3D7, dose response (AID 2305)
Assignment: determine reported pIC50 for the given molecules.
A value of pIC50 is the negative decimal logarithm of a concentration given in moles per litre.

// query pIC50 value for entry `Cc1ccc(NC(=O)NC2CCN(c3ccnc4ccccc34)CC2)cc1`
6.10

Try this molecule too: `O=C(NCCCCCN1CCCN(C(=O)Nc2ccc(Cl)c(C(F)(F)F)c2)CC1)[C@@H]1C[C@H]1c1ccc(Cl)c(Cl)c1`
6.07

Would you mind doing NC1=NC(c2ccccc2)(c2ccccn2)C(=O)N1CCCc1ccccc1 (stereo not drawn) as well?
5.98

* * *

# Test system: P. falciparum 3D7 growth, pLDH absorbance
# Test Details: blood-stage malaria parasite growth potency – strain 3D7, dose response (AID 2305)
Kindly supply the reported pIC50 values for the records listed here.
Quick note: pIC50 means taking -log10 of the concentration in moles per liter.

Give the reported pIC50 for `Cc1[nH]c(C)c(-c2ccc(Oc3ccc(Cl)cc3Cl)cc2)c(=O)c1Br` (system: P. falciparum 3D7 growth, pLDH absorbance).
6.52

And for `CCCN1CCC=C(c2cccc(Nc3nccc(Nc4cc(OC)ccc4C)n3)c2)C1` ?
5.98

Could you do the same for `O=C(/C=C/c1ccc(Cl)c(Cl)c1)NCCCCCN1CCC(c2cn[nH]c2-c2ccccc2)CC1` , please?
5.91

Please do the same for `COc1cc(Cc2cnc(N)nc2N)cc(OCCCOc2ccccc2)c1OC` as well.
5.97

// next record `COC(=O)[C@@H](NC(=O)[C@H](CC(C)C)Nc1ccc(C#N)c2ccccc12)c1ccc(O)cc1`
6.10

Next entry: `Fc1cc(Cl)ccc1Nc1ccnc(Nc2ccc3cn[nH]c3c2)n1`
6.13

Try the molecule `O=C(NCCCCN1CCN(c2cccc3c2CCCC3)CC1)c1ccc(NC(=O)c2ccc(Cl)cc2)cc1`
6.35

Next record, please: `COc1c(C2CCN(CCCCNC(=O)c3noc(-c4ccc(C#N)cc4)n3)CC2)ccc2c1CCCC2`
6.11

Next entry: `Nc1c2ccccc2nc2ccc(-c3ccccc3)cc12`
6.85

Input `Cc1ccc(Nc2nc(C)cc(NCc3ccc(-n4ccnc4)cc3)n2)cc1`
6.00

What do you get for `CN1CC=C(c2c[nH]c3ccc(C(=O)c4nccs4)cc23)CC1` ?
6.62

And what about the molecule `CCCCCCCN(CCCCCCC)CCNc1cc(C)nc2ccccc12` ?
6.47

Next entry: `N#Cc1ccc(N2CCN(Cc3ccc(-c4ccc(-c5nc6ccc(F)cc6[nH]5)s4)cc3)CC2)nc1`
6.07

Param item: `Cc1cccc(C(=O)Nc2ccnc(N(C)CCCN(C)Cc3cccc(O)c3)c2)c1`
6.01

* * *

Kindly state pIC50 for each of the entries shown.
# Tested on: P. falciparum 3D7 growth, pLDH absorbance
# Test Details: blood-stage malaria parasite growth potency – strain 3D7, dose response (AID 2305)
# reply with the number alone; pIC50 is -log10 of concentration in mol/L

Quick check: pIC50 on P. falciparum 3D7 growth, pLDH absorbance, item `CN(CCS(C)(=O)=O)Cc1ccc(-c2ccc3ncnc(Nc4ccc(OCc5cccc(F)c5)c(Cl)c4)c3c2)o1` ?
6.17

Consider next the molecule `CC(C)CNCc1ccc(-c2ccc(CN(C(=O)NCCc3ccccc3)C3CCN(Cc4ccccc4)CC3)cc2)cc1` in the same way.
6.15

// next record O=C(NC(c1ccccc1)c1ccccc1)C(c1cc2ccccc2o1)N1CCN(C(c2ccccc2)c2ccccc2)CC1 (stereo not given)
6.17

Can you handle `Cc1cccc(NC(=O)c2cnc(N3CCN(c4ccncc4)CC3)c(Cl)c2)c1` next?
6.17

`Cc1[nH]c2ccccc2c1C1CCN(CCCCNC(=O)c2ccc(-c3ccc(C#N)cc3)cc2)CC1` , same question.
6.15
